These measurements were taken from patent US10414739B2.

Molecular target: YAP-TEAD interaction (human YAP2-His6 (50-114) / human TEAD1-GST (209-426)) (Homo sapiens)
Construct: GST-TEAD1 (209-426) produced in E. coli; made in house; host or cells: E. coli
Sequence (P28347 209-426): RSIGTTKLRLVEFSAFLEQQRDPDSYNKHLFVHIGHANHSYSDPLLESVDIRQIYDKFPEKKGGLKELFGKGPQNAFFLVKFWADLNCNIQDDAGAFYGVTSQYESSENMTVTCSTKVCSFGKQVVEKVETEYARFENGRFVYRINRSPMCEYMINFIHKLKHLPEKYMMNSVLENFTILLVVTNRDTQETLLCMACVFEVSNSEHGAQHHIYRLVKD
Experiment: YAP-TEAD AlphaLISA assay
Assay type: binding
Conditions: 2 h; YAP-TEAD AlphaLISA, maximal % inhibition; read-out: Max Act.
From the text: YAP-TEAD AlphaLISA Assay for IC50 Value Determination. […] Results were expressed as % inhibition=100×((HighControl−Cpd)/(HighControl−LowControl)), were High control is the maximum response obtained with all components and Low control is the basal response obtained with all components without GST-Tead1. […]
Structures can show the parent of a compound that is named as a salt.
MEASURED ATTRIBUTE: Emax (%)

[[record]]
molecule = "COc1ccc2c(c1)C(N(CCCO)/N=C/c1ccc(O)c(OC)c1)=NS2(=O)=O"
target_desc = "YAP-TEAD interaction (human YAP2-His6 (50-114) / human TEAD1-GST (209-426)) (Homo sapiens)"
measured_attribute = "Emax"
unit_symbol = "%"
obs_value = 90

[[record]]
molecule = "COc1cc(/C=N/N(C)C2=NS(=O)(=O)c3cc(C(=O)O)ccc32)ccc1O"
target_desc = "YAP-TEAD interaction (human YAP2-His6 (50-114) / human TEAD1-GST (209-426)) (Homo sapiens)"
measured_attribute = "Emax"
unit_symbol = "%"
obs_value = 97

[[record]]
molecule = "COc1cc(/C=N/N(CCCO)C2=NS(=O)(=O)c3ccccc32)ccc1O"
target_desc = "YAP-TEAD interaction (human YAP2-His6 (50-114) / human TEAD1-GST (209-426)) (Homo sapiens)"
measured_attribute = "Emax"
unit_symbol = "%"
obs_value = 88

[[record]]
molecule = "COc1ccc2c(c1)S(=O)(=O)N=C2N(C)/N=C/c1ccc(O)c(OC)c1"
target_desc = "YAP-TEAD interaction (human YAP2-His6 (50-114) / human TEAD1-GST (209-426)) (Homo sapiens)"
measured_attribute = "Emax"
unit_symbol = "%"
obs_value = 91

[[record]]
molecule = "COc1cc(/C=N/N(C)C2=NS(=O)(=O)c3cc(F)ccc32)ccc1O"
target_desc = "YAP-TEAD interaction (human YAP2-His6 (50-114) / human TEAD1-GST (209-426)) (Homo sapiens)"
measured_attribute = "Emax"
unit_symbol = "%"
obs_value = 85

[[record]]
molecule = "COc1cc(/C=N/N(CCN2CCOCC2)C2=NS(=O)(=O)c3c(OC)cc(C)cc32)ccc1O [Example 32, hydrochloride]"
target_desc = "YAP-TEAD interaction (human YAP2-His6 (50-114) / human TEAD1-GST (209-426)) (Homo sapiens)"
measured_attribute = "Emax"
unit_symbol = "%"
obs_value = 95

[[record]]
molecule = "COCCN(/N=C/c1ccc(O)c(OC)c1)C1=NS(=O)(=O)c2ccc(OC)cc21"
target_desc = "YAP-TEAD interaction (human YAP2-His6 (50-114) / human TEAD1-GST (209-426)) (Homo sapiens)"
measured_attribute = "Emax"
unit_symbol = "%"
obs_value = 89

[[record]]
molecule = "COc1cc(/C=N/N(C)C2=NS(=O)(=O)c3ccc(F)cc32)ccc1O"
target_desc = "YAP-TEAD interaction (human YAP2-His6 (50-114) / human TEAD1-GST (209-426)) (Homo sapiens)"
measured_attribute = "Emax"
unit_symbol = "%"
obs_value = 84

[[record]]
molecule = "COc1cc(/C=N/N(CCO)C2=NS(=O)(=O)c3ccc(C)cc32)ccc1O"
target_desc = "YAP-TEAD interaction (human YAP2-His6 (50-114) / human TEAD1-GST (209-426)) (Homo sapiens)"
measured_attribute = "Emax"
unit_symbol = "%"
obs_value = 91

[[record]]
molecule = "COc1cc(/C=N/N(C)C2=NS(=O)(=O)c3ccc(C)cc32)ccc1O"
target_desc = "YAP-TEAD interaction (human YAP2-His6 (50-114) / human TEAD1-GST (209-426)) (Homo sapiens)"
measured_attribute = "Emax"
unit_symbol = "%"
obs_value = 90

[[record]]
molecule = "COc1ccc2c(c1)C(N(CCO)/N=C/c1ccc(O)c(OC)c1)=NS2(=O)=O"
target_desc = "YAP-TEAD interaction (human YAP2-His6 (50-114) / human TEAD1-GST (209-426)) (Homo sapiens)"
measured_attribute = "Emax"
unit_symbol = "%"
obs_value = 94

[[record]]
molecule = "COc1cc(OC)c2c(c1)C(N(CCO)/N=C/c1ccc(O)c(OC)c1)=NS2(=O)=O"
target_desc = "YAP-TEAD interaction (human YAP2-His6 (50-114) / human TEAD1-GST (209-426)) (Homo sapiens)"
measured_attribute = "Emax"
unit_symbol = "%"
obs_value = 90

[[record]]
molecule = "COc1cc(/C=N/N(C)C2=NS(=O)(=O)c3ccccc32)ccc1O"
target_desc = "YAP-TEAD interaction (human YAP2-His6 (50-114) / human TEAD1-GST (209-426)) (Homo sapiens)"
measured_attribute = "Emax"
unit_symbol = "%"
obs_value = 92

[[record]]
molecule = "COCCN(/N=C/c1ccc(O)c(OC)c1)C1=NS(=O)(=O)c2ccc(C)cc21"
target_desc = "YAP-TEAD interaction (human YAP2-His6 (50-114) / human TEAD1-GST (209-426)) (Homo sapiens)"
measured_attribute = "Emax"
unit_symbol = "%"
obs_value = 94

[[record]]
molecule = "COc1cc(/C=N/N(CCN2CCOCC2)C2=NS(=O)(=O)c3ccc(C)cc32)ccc1O [Example 26, hydrochloride]"
target_desc = "YAP-TEAD interaction (human YAP2-His6 (50-114) / human TEAD1-GST (209-426)) (Homo sapiens)"
measured_attribute = "Emax"
unit_symbol = "%"
obs_value = 95

[[record]]
molecule = "COc1cc(OC)c2c(c1)C(N(C)/N=C/c1ccc(O)c(OC)c1)=NS2(=O)=O"
target_desc = "YAP-TEAD interaction (human YAP2-His6 (50-114) / human TEAD1-GST (209-426)) (Homo sapiens)"
measured_attribute = "Emax"
unit_symbol = "%"
obs_value = 86

[[record]]
molecule = "COc1ccc2c(c1)C(N(CCCN1CCOCC1)/N=C/c1ccc(O)c(OC)c1)=NS2(=O)=O [Example 13, hydrochloride]"
target_desc = "YAP-TEAD interaction (human YAP2-His6 (50-114) / human TEAD1-GST (209-426)) (Homo sapiens)"
measured_attribute = "Emax"
unit_symbol = "%"
obs_value = 95

[[record]]
molecule = "COc1cc(/C=N/N(C)C2=NS(=O)(=O)c3c(OC)cccc32)ccc1O"
target_desc = "YAP-TEAD interaction (human YAP2-His6 (50-114) / human TEAD1-GST (209-426)) (Homo sapiens)"
measured_attribute = "Emax"
unit_symbol = "%"
obs_value = 89

[[record]]
molecule = "COCCN(/N=C/c1ccc(O)c(OC)c1)C1=NS(=O)(=O)c2c(OC)cc(OC)cc21"
target_desc = "YAP-TEAD interaction (human YAP2-His6 (50-114) / human TEAD1-GST (209-426)) (Homo sapiens)"
measured_attribute = "Emax"
unit_symbol = "%"
obs_value = 92

[[record]]
molecule = "COc1cc(/C=N/N(CCCN(C)C)C2=NS(=O)(=O)c3ccccc32)ccc1O [Example 6, hydrochloride]"
target_desc = "YAP-TEAD interaction (human YAP2-His6 (50-114) / human TEAD1-GST (209-426)) (Homo sapiens)"
measured_attribute = "Emax"
unit_symbol = "%"
obs_value = 95

[[record]]
molecule = "COc1cc(/C=N/N(C)C2=NS(=O)(=O)c3c(OC)cc(C)cc32)ccc1O"
target_desc = "YAP-TEAD interaction (human YAP2-His6 (50-114) / human TEAD1-GST (209-426)) (Homo sapiens)"
measured_attribute = "Emax"
unit_symbol = "%"
obs_value = 92

[[record]]
molecule = "COc1cc(/C=N/N(CCN2CCOCC2)C2=NS(=O)(=O)c3c(OC)cccc32)ccc1O [Example 23, hydrochloride]"
target_desc = "YAP-TEAD interaction (human YAP2-His6 (50-114) / human TEAD1-GST (209-426)) (Homo sapiens)"
measured_attribute = "Emax"
unit_symbol = "%"
obs_value = 99

[[record]]
molecule = "COc1cc(/C=N/N(CC(F)(F)F)C2=NS(=O)(=O)c3ccccc32)ccc1O"
target_desc = "YAP-TEAD interaction (human YAP2-His6 (50-114) / human TEAD1-GST (209-426)) (Homo sapiens)"
measured_attribute = "Emax"
unit_symbol = "%"
obs_value = 74

[[record]]
molecule = "COc1cc(/C=N/N(CCO)C2=NS(=O)(=O)c3c(OC)cccc32)ccc1O"
target_desc = "YAP-TEAD interaction (human YAP2-His6 (50-114) / human TEAD1-GST (209-426)) (Homo sapiens)"
measured_attribute = "Emax"
unit_symbol = "%"
obs_value = 97

[[record]]
molecule = "COc1cc(/C=N/N(CCN2CCOCC2)C2=NS(=O)(=O)c3ccccc32)ccc1O [Example 4, hydrochloride]"
target_desc = "YAP-TEAD interaction (human YAP2-His6 (50-114) / human TEAD1-GST (209-426)) (Homo sapiens)"
measured_attribute = "Emax"
unit_symbol = "%"
obs_value = 97

[[record]]
molecule = "COCCN(/N=C/c1ccc(O)c(OC)c1)C1=NS(=O)(=O)c2ccccc21"
target_desc = "YAP-TEAD interaction (human YAP2-His6 (50-114) / human TEAD1-GST (209-426)) (Homo sapiens)"
measured_attribute = "Emax"
unit_symbol = "%"
obs_value = 94

